These data points were gathered from paper PMC4057637.

tested on: Clinical MRSA strains; experiment: MIC, broth dilution; assay type: cell-based, S. aureus; settings: Staphylococcus aureus; Clinical MRSA strains (n = 5)
Measured parameter: MIC

Tell me the measured MIC of `O=C(O)c1cccc(-c2ccc(C=C3SC(=Nc4ccc(Cl)cc4)N(c4ccc(Cl)cc4)C3=O)o2)c1` , please.
1.5 to 3.1 µM

Entry `O=C(O)c1ccc(-c2ccc(/C=C3\S/C(=N\c4ccccc4)N(c4ccc(Cl)cc4)C3=O)o2)cc1` has what MIC?
1.5 to 3.1 µM

Could you tell me which MIC is on file for `O=C(O)c1ccc(-c2ccc(C=C3SC(=Nc4ccc(Cl)cc4)N(c4ccc(Cl)cc4)C3=O)o2)cc1` ?
1.5 to 3.1 µM

Using the record for `O=C(O)c1ccc(-c2ccc(C=C3SC(=Nc4ccc(F)cc4)N(c4ccc(F)cc4)C3=O)s2)cc1` , report its MIC.
1.5 to 3.1 µM

Requested field: MIC. Item: `O=C(O)COc1ccc(C=C2SC(=Nc3ccc(Cl)cc3)N(c3ccc(Cl)cc3)C2=O)cc1`
3.1 to 6.3 µM

Quick one: MIC for `CCc1ccccc1/N=C1\S/C(=C\c2ccc(OCC(=O)O)c(OC)c2)C(=O)N1c1ccccc1CC` ?
25 to 50 µM

Given `O=C(O)c1ccc(-c2ccc(/C=C3\S/C(=N\c4ccccc4)N(c4ccc(F)cc4)C3=O)s2)cc1` , state its recorded MIC.
1.5 µM

----------
system: mature (24-h-old) biofilms of S. epidermidis ATCC 35984; test: Bacterial viability in mature biofilms by CLSM with Live/Dead staining; assay type: cell-based; settings: 4 × MIC, 16 h, SYTO9/PI
Measured parameter: proportion of viable cells in mature biofilms (%)
Numbers only here, please. The scale is %.

Given the entry `O=C(O)c1ccc(-c2ccc(C=C3SC(=Nc4ccc(F)cc4)N(c4ccc(F)cc4)C3=O)s2)cc1` , report its measured proportion of viable cells in mature biofilms.
14

Consider the compound shown here: `O=C(O)c1cccc(-c2ccc(C=C3SC(=Nc4ccc(Cl)cc4)N(c4ccc(Cl)cc4)C3=O)o2)c1` What is its recorded proportion of viable cells in mature biofilms?
42.3

proportion of viable cells in mature biofilms for `O=C(O)c1ccc(-c2ccc(C=C3SC(=Nc4ccc(Cl)cc4)N(c4ccc(Cl)cc4)C3=O)o2)cc1` ?
55.6

proportion of viable cells in mature biofilms for `O=C(O)c1ccc(-c2ccc(/C=C3\S/C(=N\c4ccccc4)N(c4ccc(Cl)cc4)C3=O)o2)cc1` ?
17.1

Request the reported proportion of viable cells in mature biofilms associated with `O=C(O)c1ccc(-c2ccc(/C=C3\S/C(=N\c4ccccc4)N(c4ccc(F)cc4)C3=O)s2)cc1`
12.3

Quick one: proportion of viable cells in mature biofilms for `O=C(O)COc1ccc(C=C2SC(=Nc3ccc(Cl)cc3)N(c3ccc(Cl)cc3)C2=O)cc1` ?
32.5

----------
I'd be grateful if you could share measured MIC In combination: derivative for these entries.
test system: S. epidermidis ATCC 35984; assay: Derivatives combined with vancomycin or cefazolin (FIC index); format: cell-based; details: derivative combined with vancomycin
Your answer should be a plain number; it is taken to be in µg/mL.

Recorded MIC In combination: derivative for O=C(O)c1cccc(-c2ccc(C=C3SC(=Nc4ccc(Cl)cc4)N(c4ccc(Cl)cc4)C3=O)o2)c1 [H2-38] with S. epidermidis ATCC 35984, please?
0.4

Please provide the recorded MIC In combination: derivative for O=C(O)c1ccc(-c2ccc(/C=C3\S/C(=N\c4ccccc4)N(c4ccc(F)cc4)C3=O)s2)cc1 [H2-81] , tested on S. epidermidis ATCC 35984.
0.18

I'm curious: which MIC In combination: derivative was measured for O=C(O)COc1ccc(C=C2SC(=Nc3ccc(Cl)cc3)N(c3ccc(Cl)cc3)C2=O)cc1 [H2-74] tested on S. epidermidis ATCC 35984?
0.2

Lab request: please report MIC In combination: derivative under test system S. epidermidis ATCC 35984 for O=C(O)c1ccc(-c2ccc(C=C3SC(=Nc4ccc(F)cc4)N(c4ccc(F)cc4)C3=O)s2)cc1 [H2-60]
0.85

Lab request: please report MIC In combination: derivative under test system S. epidermidis ATCC 35984 for O=C(O)c1ccc(-c2ccc(C=C3SC(=Nc4ccc(Cl)cc4)N(c4ccc(Cl)cc4)C3=O)o2)cc1 [H2-39]
0.8
